- measurement-target: Ataxin-2 (Homo sapiens)
- test-method-notes: qHTS for Inhibitors of ATXN expression.
- Format: functional
Screen size: about 400,000 compounds; about 2,100 (0.53%) were called active. Roughly 14% stayed inconclusive and do not appear here. The entries come from a sample that favours actives as a whole.
measured-metric: Potency

# molecule, measured-metric, assay-result
records = [
    ("CCN(Cc1ccc(NC(C)=O)cc1)CC1CCCN(CCc2cccc(F)c2)C1 (stereo not given)", "Potency", "inactive"),
    ("Cn1c(Cl)cnc1C(O)(c1ccccc1)c1ccccc1", "Potency", "inactive"),
    ("Cc1cccn2c(=O)c3cc(C(=O)N4CCCCC4)sc3nc12", "Potency", "inactive"),
    ("O=C(O)COc1ccc(/C=C/c2nc3ccc([N+](=O)[O-])cc3s2)cc1", "Potency", "inactive"),
]

Query molecule follows.
// returns reported Potency for input CC(=O)n1cc(C(C[N+](=O)[O-])SCCN)c2ccccc21 (stereo not given) 22.4 µM (active)

* * *

- measurement-target: Ataxin-2 (Homo sapiens)
- test-method-notes: qHTS for Inhibitors of ATXN expression.
- Assay type: functional
Hit rate of the full screen: of about 400,000 compounds, about 2,100 (0.53%) were called active. Not shown: some 14% with an inconclusive outcome. How the calls were made is not given here. This excerpt belongs to a sample that is enriched for actives.
// one of active, inactive, no free text

# compound, classification
records = [
    ("CC(=O)/C(C#N)=C1\\NC(=O)C(Cc2ccccc2C)S1 (stereo not drawn)", "inactive"),
]

I would be grateful if you could indicate the recorded call for O=[N+]([O-])c1ccc(COc2ncnc3ccccc23)cc1 . inactive

I would be grateful if you could indicate the recorded call for O=C(O)c1cc([N+](=O)[O-])ccc1-c1ccc([N+](=O)[O-])cc1C(=O)O . inactive

I would be grateful if you could indicate the recorded call for Cc1cc(Sc2nc(NC(C)(C)C)nc(N3CCOCC3)n2)nc(Cl)n1 . inactive

I would be grateful if you could indicate the recorded call for O=C(O)c1ccccc1Nc1ccc([N+](=O)[O-])cc1 . inactive

I would be grateful if you could indicate the recorded call for Cc1ccc(OCCn2cnc(Cl)c2Cl)cc1 . inactive

I would be grateful if you could indicate the recorded call for O=C(/C=C/c1cccc([N+](=O)[O-])c1)n1cnc2ccccc21 . active

I would be grateful if you could indicate the recorded call for COc1ccc(-n2c(N)c(C(=O)NCC3CCCO3)c3nc4ccccc4nc32)c(OC)c1 (stereo not drawn) . inactive

* * *

- measurement-target: Ataxin-2 (Homo sapiens) (UniProt Q99700)
- Sequence (Q99700 whole entry): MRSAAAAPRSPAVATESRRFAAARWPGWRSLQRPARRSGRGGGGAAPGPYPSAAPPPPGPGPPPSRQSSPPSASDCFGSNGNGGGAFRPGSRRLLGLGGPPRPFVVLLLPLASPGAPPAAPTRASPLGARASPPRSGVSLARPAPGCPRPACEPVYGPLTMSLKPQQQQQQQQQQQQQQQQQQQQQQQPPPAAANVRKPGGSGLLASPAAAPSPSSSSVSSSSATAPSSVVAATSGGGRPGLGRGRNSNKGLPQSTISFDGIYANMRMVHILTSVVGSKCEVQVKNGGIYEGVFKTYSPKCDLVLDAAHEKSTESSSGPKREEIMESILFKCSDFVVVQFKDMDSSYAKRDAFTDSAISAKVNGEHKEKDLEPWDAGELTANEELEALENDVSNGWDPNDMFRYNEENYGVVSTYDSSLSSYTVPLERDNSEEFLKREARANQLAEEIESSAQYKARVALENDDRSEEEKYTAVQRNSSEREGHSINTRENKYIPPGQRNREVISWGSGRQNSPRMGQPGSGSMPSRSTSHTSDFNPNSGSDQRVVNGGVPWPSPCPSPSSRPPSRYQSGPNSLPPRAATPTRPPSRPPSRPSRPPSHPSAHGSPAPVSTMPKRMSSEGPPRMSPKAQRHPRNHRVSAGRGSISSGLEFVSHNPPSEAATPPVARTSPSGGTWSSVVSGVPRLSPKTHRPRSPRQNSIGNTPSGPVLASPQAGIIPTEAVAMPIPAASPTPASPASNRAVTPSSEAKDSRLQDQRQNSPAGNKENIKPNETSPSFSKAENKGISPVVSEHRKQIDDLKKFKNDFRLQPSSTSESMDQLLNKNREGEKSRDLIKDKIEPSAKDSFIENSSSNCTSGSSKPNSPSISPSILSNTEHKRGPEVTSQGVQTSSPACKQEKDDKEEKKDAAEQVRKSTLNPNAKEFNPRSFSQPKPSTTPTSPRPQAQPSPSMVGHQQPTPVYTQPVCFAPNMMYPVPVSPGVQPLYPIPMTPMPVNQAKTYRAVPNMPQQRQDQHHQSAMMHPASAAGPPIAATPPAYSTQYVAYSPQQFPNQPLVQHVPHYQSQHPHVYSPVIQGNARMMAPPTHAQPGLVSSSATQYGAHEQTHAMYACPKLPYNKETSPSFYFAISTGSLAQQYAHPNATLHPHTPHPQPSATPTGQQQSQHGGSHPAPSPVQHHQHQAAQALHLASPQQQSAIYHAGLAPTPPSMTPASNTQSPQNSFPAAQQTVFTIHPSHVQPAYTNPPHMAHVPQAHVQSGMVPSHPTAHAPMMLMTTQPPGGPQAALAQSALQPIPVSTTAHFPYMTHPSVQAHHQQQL
- test-method-notes: qHTS for Inhibitors of ATXN expression.
- Format: functional
The whole screen tested about 400,000 compounds, of which about 2,100 (0.53%) were called active. Not shown: some 14% with an inconclusive outcome. The rule behind the calls is not given here. This excerpt belongs to a sample that is enriched for actives.
// one of active, inactive, no free text

I would be grateful if you could indicate the recorded call for COc1cccc2cc(C(=O)C3=C(O)C(=O)N(CCN4CCOCC4)C3c3ccc(Cl)cc3)oc12 (stereo unspecified) . inactive

* * *

- measurement-target: Ataxin-2 (Homo sapiens) (UniProt Q99700)
- test-method-notes: qHTS for Inhibitors of ATXN expression.
- Format: functional
The whole screen tested about 400,000 compounds, of which about 2,100 (0.53%) were called active. Roughly 14% stayed inconclusive and do not appear here. The full list was thinned out, with actives kept by preference.
measured-metric: Potency

# compound, Potency
data = [
    ("Cc1ccccc1CSc1nnc(-c2cnccn2)n1C", "inactive"),
    ("N#Cc1nc(/C=C/c2ccccc2)oc1NCCCN1CCOCC1", "inactive"),
    ("COc1ccc(C(CNC(=O)COc2c(C)cc(C)cc2C)N2CCOCC2)cc1 (stereo unspecified)", "inactive"),
    ("CCCNC(=O)c1ccc2c(O)c(O)c(-c3ccc(C)cc3)nc2c1", "inactive"),
    ("CCCn1c(SCc2nc(-c3ccccc3C)no2)nnc1-c1ccc(Cl)cc1", "39.8 µM (active)"),
]

Query compound follows.
Form field - read-out: Potency; system: Ataxin-2 (Homo sapiens) (UniProt Q99700); submitted item: O=C1N/C(=C/c2cccn2-c2ccc(F)cc2)C(=O)N1Cc1ccccc1 inactive
